I'd appreciate it if you could supply protein stability index values for the items below.
B1: TRAF3IP2 (parent)
chain: FMEKRNQWLVSQLSAASPDTGHDS

Variants of: B1
procedure summary: protein stability index of a GFP-peptide fusion (GPS, HEK-293T) (PSI 1-6); higher = more stable;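 note: lentivirally expressed fusions sorted by FACS into six bins by GFP to DsRed ratio, PSI derived from sequencing read proportions per bin multiplied by bin number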
test settings: c terminus: a fixed tail appended

Field: example entries. Status: answers known.
| chain | value reported |
| --- | --- |
| FMEKRNQWLVSQLSACSPDTGHDS [A16C] | 1.96 |
| FMNKRNQWLVSQLSAASPDTGHDS [E3N] | 1.97 |

Q) If you can, please state the reported protein stability index value of FMEKRNQWLVSQLSAASPDTGIDS [H22I] .
A) 1.95
